test: CellTiter-Glo luminescent readout of SW480 viability loss, NPC library primary (AID 1117343); conditions: CellTiter-Glo luminescence; at 20 µM (top of the series)
Active and inactive are the calls of the source.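 How the source made its calls: active means compounds that lower viability of the colon cancer cells in the luminescence readout, with no numeric limit stated; inactive means the rest.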
Bench note: report the call from active, inactive

These solved cases illustrate the format of a correct answer.
compound: O=C(C1CCCCC1)N1CC(=O)N2CCCc3ccccc3C2C1 (configuration not stated)
cat: inactive
--
compound: CCCCC(CC)COC(=O)c1ccc(N(C)C)cc1 (configuration not stated)
cat: inactive
--
compound: CN(C)CCC=C1c2ccccc2CCc2ccccc21
cat: active
--
compound: O=C(O)c1ccccn1
cat: inactive
--
compound: Nc1ncn([C@@H]2O[C@H](CO)[C@@H](O)[C@H]2O)c(=O)n1
cat: active

Q: Give the logged outcome of this assay for the following compound: C[C@]12C=CC(=O)C=C1[C@@H](F)C[C@@H]1[C@@H]2[C@@H](O)C[C@@]2(C)[C@H]1CC[C@]2(O)C(=O)CO
Result: inactive

Q: Give the logged outcome of this assay for the following compound: CC(=O)c1ccc(OCC(=O)N2CCCCC2)cc1
Result: inactive

Q: Give the logged outcome of this assay for the following compound: O=C(CCN1CCC(c2ccccc2)C1)c1ccc2c(c1)OCCO2 (configuration not stated)
Result: active

Q: Give the logged outcome of this assay for the following compound: CC(C)=CCOc1ccc(/C=C/C(=O)c2ccc(OCC=C(C)C)cc2OCC(=O)O)cc1
Result: active

Q: Give the logged outcome of this assay for the following compound: Cc1ncc(CO)c(C=O)c1O
Result: inactive

Q: Give the logged outcome of this assay for the following compound: O=C(O)c1cc(O)c2c(c1)[O][Bi][O]2
Result: inactive

Q: Give the logged outcome of this assay for the following compound: C[N+]1(CC2COC(c3ccccc3)(c3ccccc3)O2)CCCCC1 (configuration not stated)
Result: inactive

----------
assay: stimulators of nuclear beta-catenin in C2C12, primary screen, imaging, WNT3A-conditioned medium, mouse C2C12, NPC library (AID 1117326); conditions: stimulation, at 2 µM, stronger effect = higher value; further: reference of the scale not given here
readout_label: nuclear beta-catenin stimulation (%)
Respond with the bare value in %.

Study these solved cases before continuing.
compound: CCCc1cc(=O)[nH]c(=S)[nH]1
readout_label: nuclear beta-catenin stimulation
measured: 0.8

compound: CC(C)(C)NCC(O)COc1ccc(NC(=O)NC2CCCCC2)cc1 (centres undefined)
readout_label: nuclear beta-catenin stimulation
measured: -0.1

Q: Consider the compound shown here: Cc1c(Cn2ccnc2)c2ccccc2n1CCC(=O)O What is its recorded nuclear beta-catenin stimulation?
Result: 2.7

Q: Consider the compound shown here: CN(C)[C@@H]1C(=O)C(C(=O)NCN2CCCC2)=C(O)[C@@]2(O)C(=O)C3=C(O)c4c(O)cccc4[C@@](C)(O)C3C[C@@H]12 (some centres undefined) What is its recorded nuclear beta-catenin stimulation?
Result: 3.1

Q: Consider the compound shown here: O=C(O)CNC(=O)CNC(=O)CNC(=O)CSC(=O)c1ccccc1 What is its recorded nuclear beta-catenin stimulation?
Result: -1.6

Q: Consider the compound shown here: O=C(O)c1cc(=O)c2c(OCC(O)COc3cccc4oc(C(=O)O)cc(=O)c34)cccc2o1 What is its recorded nuclear beta-catenin stimulation?
Result: 1.3

Q: Consider the compound shown here: CC1COc2c(N3CCN(C)CC3)c(F)cc3c(=O)c(C(=O)O)cn1c23 (centres undefined) What is its recorded nuclear beta-catenin stimulation?
Result: -0.9

Q: Consider the compound shown here: COc1ccc(/C=C/C(=O)c2ccc(OC)cc2OC)cc1 What is its recorded nuclear beta-catenin stimulation?
Result: -0.5
